Counter-ions that a name gives are not always drawn.
READOUT_KIND: melting point

Q. # input molecule: COc1ccccc1N1CCN(C[C@@H](CC2CCCCC2)NC(=O)C2CCCCC2)CC1 (as salt: hydrochloride) ; wanted: its melting point
A. 121 to 131 °C

Q. # input molecule: COc1ccccc1N1CCN(C[C@@H](CC2CCCCC2)NC(=O)C2(C)CCCCC2)CC1 (as salt: hydrochloride) (hydrate or solvate) ; wanted: its melting point
A. 119 to 121 °C

Q. # input molecule: COc1ccccc1C1CCN(C[C@@H](CC2CCCCC2)N(C)C(=O)C2(C)CCCCC2)CC1 (as salt: hydrochloride) (hydrate or solvate) ; wanted: its melting point
A. 169 to 171 °C
